# Assay System: full-length human RORγt (Homo sapiens (Human))
# Run Description: RORγt (full-length human) reporter assay, conditions A or B
# Protocol Conditions: HEK293T cells; read-out: RORγt (FL) Reporter Assay A or B, IC50
I'd appreciate it if you could supply IC50 values for the items below.
Kindly report the value followed by its unit.

[[record]]
compound = "CCc1nc(C(=O)NC[C@]2(O)CC[C@@H](S(C)(=O)=O)CC2)c(Cl)n1-c1ccc(CC(C)C)cc1OC (single isomer, unassigned) [Example 91]"
assay_system = "full-length human RORγt (Homo sapiens (Human))"
reported_measurement = "360 nM"

[[record]]
compound = "CCc1nc(C(=O)NC[C@@H]2CC[C@@H](S(C)(=O)=O)C[C@H]2O)c(Cl)n1-c1ncc(CC(C)(C)C(F)(F)F)cc1OC(F)F (single isomer, unassigned)"
assay_system = "full-length human RORγt (Homo sapiens (Human))"
reported_measurement = "65 nM"

[[record]]
compound = "[2H]C([2H])([2H])Oc1cc(CC(C)(C)C(F)(F)F)ccc1-n1c(CC)nc(C(=O)NC[C@H]2CC[C@H](S(C)(=O)=O)CC2)c1F"
assay_system = "full-length human RORγt (Homo sapiens (Human))"
reported_measurement = "15 nM"


Give one value of IC50 per listed compound.
1. Cc1nc(C(=O)NC[C@@H]2CC[C@@H](S(C)(=O)=O)C[C@H]2O)c(C#N)n1-c1ccc(CC(C)(C)C(F)(F)F)cc1OC(F)F (single isomer, unassigned) [Example 57]
2. CCc1nc(C(=O)NC[C@H]2CC[C@H](S(C)(=O)=O)CC2)c(F)n1-c1ccc(CC(C)C(F)(F)F)cc1OC (some centres unmarked)

Output:
1: 40 nM; 2: 55 nM

###

So I've got a bunch of compounds here, and I need their pIC50 values.
# Assay System: full-length human RORγt (Homo sapiens (Human))
# Run Description: RORγt (full-length human) reporter assay, conditions A or B
# Protocol Conditions: HEK293T cells; read-out: RORγt (FL) Reporter Assay A or B, IC50
Numbers only, as −log10 of the molar value.

[[record]]
compound = "CCc1nc(C(=O)NC[C@]2(O)CC[C@@H](S(C)(=O)=O)CC2)c(F)n1-c1ccc(CCC(F)(F)F)cc1OC"
assay_system = "full-length human RORγt (Homo sapiens (Human))"
reported_measurement = 6.49

[[record]]
compound = "COc1cc(N[C@H](C)C(F)(F)F)ccc1-n1c(CC(C)C)nc(C(=O)NC[C@H]2CC[C@H](S(C)(=O)=O)CC2)c1Cl"
assay_system = "full-length human RORγt (Homo sapiens (Human))"
reported_measurement = 7.46


Task: Provide the reported pIC50 (system: full-length human RORγt (Homo sapiens (Human))) for CCc1nc(C(=O)NC[C@]2(O)CC[C@@H](S(C)(=O)=O)CC2)c(Cl)n1-c1c(F)cc(CC(C)C(F)(F)F)cc1F (stereo partly drawn)
Output: 7.34

###

Recorded pKd values (human RORγt ligand binding domain (RORγt LBD) (Homo sapiens (Human))) are given below.
One number for each entry, as −log10 of the molar value.

Solved entries (count: 2):
[[record]]
compound = "CCc1nc(C(=O)NC[C@]2(O)CC[C@@H](S(C)(=O)=O)CC2)c(C)n1-c1ncc(CC(C(F)(F)F)C(F)(F)F)cc1OC(F)F"
reported_measurement = 6.96

[[record]]
compound = "Cc1nc(C(=O)NC[C@@H]2CC[C@@H](S(C)(=O)=O)C[C@H]2O)c(C#N)n1-c1ccc(CC(C)(C)C(F)(F)F)cc1OC(F)F (racemic) [Example 55]"
reported_measurement = 7.70


Task: Recall the reported pKd of CCc1nc(C(=O)NC[C@H]2CC[C@H](S(C)(=O)=O)CC2)c(Cl)n1-c1ccc(CC(C)C(F)(F)F)cc1OC (single isomer, unassigned) [Example 5] when tested on human RORγt ligand binding domain (RORγt LBD) (Homo sapiens (Human)).
Sequence (P51449 other isoform, or with tags, fused parts or gaps): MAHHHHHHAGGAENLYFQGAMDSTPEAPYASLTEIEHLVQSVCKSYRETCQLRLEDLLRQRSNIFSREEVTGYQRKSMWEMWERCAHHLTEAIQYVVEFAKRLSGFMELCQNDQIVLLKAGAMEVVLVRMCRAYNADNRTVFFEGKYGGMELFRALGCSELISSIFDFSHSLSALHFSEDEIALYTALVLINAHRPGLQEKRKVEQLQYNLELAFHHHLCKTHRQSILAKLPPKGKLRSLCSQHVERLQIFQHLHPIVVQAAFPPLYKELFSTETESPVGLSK
Output: 5.89

###

Endpoint: Kd. System: human RORγt ligand binding domain (RORγt LBD) (Homo sapiens (Human)). Items follow.
Answers are plain numbers, in nM.

[[record]]
compound = "CCc1nc(C(=O)NC[C@]2(O)CC[C@@H](S(C)(=O)=O)CC2)c(C#N)n1-c1ccc(CCC(F)(F)F)cc1F"
reported_measurement = 290

[[record]]
compound = "CCc1nc(C(=O)NC[C@]2(O)CC[C@@H](S(C)(=O)=O)CC2)c(Cl)n1-c1ccc(CC(C)C)cc1OC (single isomer, unassigned) [Example 92]"
reported_measurement = 0.28

[[record]]
compound = "[2H]C([2H])([2H])Oc1cc(CC(C)(C)C(F)(F)F)ccc1-n1c(CC)nc(C(=O)NC[C@]2(O)CC[C@@H](S(C)(=O)=O)CC2)c1F"
reported_measurement = 12

[[record]]
compound = "Cc1nc(C(=O)NC[C@H]2CC[C@H](S(C)(=O)=O)C[C@@H]2O)c(C#N)n1-c1ccc(CC(C)(C)C(F)(F)F)cc1OC(F)F (single isomer, unassigned)"
reported_measurement = 32

[[record]]
compound = "CCc1cc(CC(C)(C)C(F)(F)F)cnc1-n1c(CC)nc(C(=O)NC[C@H]2CC[C@H](S(C)(=O)=O)CC2)c1Cl"
reported_measurement = 8.3


In the following, a different compound is considered.
Task: State recorded Kd with human RORγt ligand binding domain (RORγt LBD) (Homo sapiens (Human)), entry CCc1nc(C(=O)NC[C@H]2CC[C@H](S(C)(=O)=O)CC2)cn1-c1c(F)cc(CC(C)C)cc1F , no comment.
Output: 150

###

# Assay System: full-length human RORγt (Homo sapiens (Human), UniProt P51449)
# Sequence (P51449 other isoform, or with tags, fused parts or gaps): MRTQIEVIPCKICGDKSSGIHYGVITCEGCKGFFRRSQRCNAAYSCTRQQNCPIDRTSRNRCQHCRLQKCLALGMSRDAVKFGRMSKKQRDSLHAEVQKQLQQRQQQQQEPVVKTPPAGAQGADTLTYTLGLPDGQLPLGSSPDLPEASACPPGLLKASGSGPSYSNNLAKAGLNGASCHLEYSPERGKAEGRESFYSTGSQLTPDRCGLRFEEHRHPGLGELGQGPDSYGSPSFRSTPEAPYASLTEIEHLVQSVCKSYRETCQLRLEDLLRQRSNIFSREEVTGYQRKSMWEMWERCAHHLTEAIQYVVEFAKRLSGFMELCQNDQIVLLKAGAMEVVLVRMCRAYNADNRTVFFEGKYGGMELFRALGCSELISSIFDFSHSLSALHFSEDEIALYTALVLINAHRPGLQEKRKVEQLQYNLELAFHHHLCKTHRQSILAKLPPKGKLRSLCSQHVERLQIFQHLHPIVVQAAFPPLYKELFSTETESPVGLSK
# Run Description: RORγt (full-length human) reporter assay, conditions A or B
# Format: cell-based
# Protocol Conditions: read-out: RORγt (FL) Reporter Assay A or B, % inhibition @ 6 μM; 6 μM compound concentration
Measure: inhibition at 6 µM (%)
Give bare numbers, in %.

Consider the following items and state reported inhibition at 6 µM for each.
1. CCc1nc(C(=O)NC[C@]2(O)CC[C@@H](S(C)(=O)=O)CC2)c(C#N)n1-c1ccc(CCC(F)(F)F)cc1OC(F)(F)F
2. CCc1nc(C(=O)NC[C@H]2CC[C@H](S(C)(=O)=O)CC2)c(C#N)n1-c1ccc(CCC(F)(F)F)cc1OC(F)(F)F
3. CCc1nc(C(=O)NC[C@]2(O)CC[C@@H](S(C)(=O)=O)CC2)c(Cl)n1-c1ccc(CCC(F)(F)F)cc1F

Output:
[66, 74, 41]

###

The reader will find pKd measurements below, all made with human RORγt ligand binding domain (RORγt LBD) (Homo sapiens (Human)).
One number for each entry, as −log10 of the molar value.

[[record]]
compound = "CCc1nc(C(=O)NC[C@]2(O)CC[C@@H](S(C)(=O)=O)CC2)c(C#N)n1-c1ccc(CC(C)(C)C(F)(F)F)cc1OC(F)F"
reported_measurement = 8.28

[[record]]
compound = "CCc1nc(C(=O)NC[C@]2(O)CC[C@@H](S(C)(=O)=O)CC2)c(Cl)n1-c1ccc(CC(C)(C)C(F)(F)F)c(OC)c1"
reported_measurement = 8.66

[[record]]
compound = "CCc1nc(C(=O)NC[C@H]2CC[C@H](S(C)(=O)=O)CC2)c(F)n1-c1ccc(CCC(F)(F)F)cc1OC"
reported_measurement = 7.60

[[record]]
compound = "CCc1nc(C(=O)NC[C@H]2CC[C@H](S(C)(=O)=O)CC2)c(C)n1-c1ccc(CC(C(F)(F)F)C(F)(F)F)cc1F"
reported_measurement = 8.48

[[record]]
compound = "COc1cc(N[C@H](C)C(F)(F)F)ccc1-n1c(C(C)(C)C)nc(C(=O)NC[C@H]2CC[C@H](S(C)(=O)=O)CC2)c1Cl"
reported_measurement = 8.21


Hey, can you go through the list below and give me pKd for every item?
1. CCc1nc(C(=O)NC[C@]2(O)CC[C@@H](S(C)(=O)=O)CC2)c(C#N)n1-c1ccc(CCC(F)(F)F)cc1OC(F)(F)F
2. COc1cc(N[C@H](C)C(F)(F)F)ccc1-n1c(CC(C)C)nc(C(=O)NC[C@H]2CC[C@H](S(C)(=O)=O)CC2)c1Cl
3. CCc1nc(C(=O)NC[C@@]2(O)CC[C@H](S(C)(=O)=O)C[C@@H]2O)c(Cl)n1-c1ncc(CC(C)(C)C(F)(F)F)cc1OC(F)F (stereo in doubt)
4. CCc1nc(C(=O)NC[C@H]2CC[C@H](S(C)(=O)=O)CC2)c(C#N)n1-c1ccc(CCC(F)(F)F)cc1F

Output:
1: 6.96; 2: 8.59; 3: 7.34; 4: 7.03

###

Exercise: for every item that follows, state its recorded inhibition at 2 µM.
# Assay System: UniProtKB P51449
# Run Description: RORγt (full-length human) reporter assay, conditions A or B
# Format: cell-based
# Protocol Conditions: 2 μM compound concentration (**); read-out: RORγt (FL) Reporter Assay A or B, % inhibition
Answers are plain numbers, in %.

The cases that follow already have their inhibition at 2 µM on record.
[[record]]
molecule = "CCc1nc(C(=O)NC[C@H]2CC[C@H](S(C)(=O)=O)CC2)cn1-c1ccc(C[C@@H](C)C(F)(F)F)cc1OC (single isomer, unassigned) [Example 18]"
measurement_units = "%"
reported_measurement = 93

[[record]]
molecule = "CCc1nc(C(=O)NC[C@H]2CC[C@H](S(C)(=O)=O)CC2)c(Cl)n1-c1ncc(CC(C)(C)C(F)(F)F)cc1OC [Example 125]"
measurement_units = "%"
reported_measurement = 99


List inhibition at 2 µM for every entry below, keeping the order given.
1. CCc1nc(C(=O)NC[C@]2(O)CC[C@@H](S(C)(=O)=O)CC2)c(Cl)n1-c1ccc(CCCC(F)(F)F)cc1F [Example 98]
2. CCc1nc(C(=O)NC[C@H]2CC[C@H](S(C)(=O)=O)CC2)c(C#N)n1-c1ccc(CCC(F)(F)F)cc1F [Example 93]
3. CCc1nc(C(=O)NC[C@H]2CC[C@H](S(C)(=O)=O)CC2)c(C(N)=O)n1-c1ccc(CCC(F)(F)F)cc1F [Example 94]
4. CCc1nc(C(=O)NC[C@]2(O)CC[C@@H](S(C)(=O)=O)CC2)c(Cl)n1-c1c(F)cc(CC(C)C)cc1F [Example 83]

Output:
43
65
47
23

Working through the 3 molecules below one at a time, give inhibition at 2 µM for each.
1. CCc1nc(C(=O)NC[C@]2(O)CC[C@@H](S(C)(=O)=O)CC2)cn1-c1ccc(C[C@@H](C)C(F)(F)F)cc1OC (single isomer, unassigned) [Example 17]
2. COc1cc(N[C@H](C)C(F)(F)F)ccc1-n1c(C(C)(C)C)nc(C(=O)NC[C@H]2CC[C@H](S(C)(=O)=O)CC2)c1Cl [Example 10]
3. [2H]C([2H])([2H])Oc1cc(CC(C)(C)C(F)(F)F)ccc1-n1c(CC)nc(C(=O)NC[C@]2(O)CC[C@@H](S(C)(=O)=O)CC2)c1F [Example 32]

Output:
74
104
99

Could I get inhibition at 2 µM for every one of these entries?
1. CCc1nc(C(=O)NC[C@H]2CC[C@H](S(C)(=O)=O)CC2)c(C#N)n1-c1ncc(CC(C)(C)C(F)(F)F)cc1OC [Example 122]
2. [2H]C([2H])([2H])Oc1cc(CC(C)(C)C(F)(F)F)ccc1-n1c(CC)nc(C(=O)NC[C@]2(O)CC[C@@H](S(C)(=O)=O)CC2)c1C#N [Example 28]
3. [2H]C([2H])([2H])Oc1cc(CC(C)(C)C(F)(F)F)ccc1-n1c(CC)nc(C(=O)NC[C@]2(C#N)CC[C@@H](S(C)(=O)=O)CC2)c1F [Example 31]
4. CCc1nc(C(=O)NC[C@H]2CC[C@H](S(C)(=O)=O)CC2)cn1-c1ccc(C[C@H](C)C(F)(F)F)cc1OC (single isomer, unassigned) [Example 20]

Output:
[101, 102, 101, 94]
